Numbers sourced from the supplement of paper PMC9170038.

// values below are reported apparent KD of MS2 coat protein
system: MS2 coat protein; experiment: apparent KD of MS2 coat protein, switch OFF state (with FMN for OFF switches, without FMN for ON switches); designed switch direction (-1 OFF switch, 1 ON switch): 1; higher = weaker reporter binding; settings: FMN input: 0 or 200 uM; Eterna round: R93 (includes R88 designs)
assay-endpoint: apparent KD of MS2 coat protein (nM)

{"biopolymer-sequence": "AAUAUACAUGAGGAUCACCCAUGUUUUAAUAACUCAGGAUAUACAGGUGAAAACAGCAUAGUAGAAGGGAGAAAAA [SameState1 Malc#3]", "assay-endpoint": "apparent KD of MS2 coat protein", "endpoint-unit": "nM", "experimental-result": 23.2}
{"biopolymer-sequence": "GGGAAGAAGAGAGAGGAUAUCCAAAGGAAAACAUGAGGAUCACCCAUGUAAAAGGUAGGAAAUUGGGAGAAGGCUCAAAAGAGAG [salish99-ss2-034]", "assay-endpoint": "apparent KD of MS2 coat protein", "endpoint-unit": "nM", "experimental-result": 40.8}
{"biopolymer-sequence": "AACGAACAUGAGGAUCACCCAUGUUCCAGCAGUUGAGGAUAUGUGGGUGAAAAUAGCACGGCAGAAGGCGAGUGUA [SameState1 Malc#22]", "assay-endpoint": "apparent KD of MS2 coat protein", "endpoint-unit": "nM", "experimental-result": 82.1}
{"biopolymer-sequence": "GAAAAACAUGAGGAUCACCCAUGUGAAAAUAUGGGAGGAUAUACGAAGUCGAAAGUCAAAGUAGAAGGCCUAAAAG [Garnet 32]", "assay-endpoint": "apparent KD of MS2 coat protein", "endpoint-unit": "nM", "experimental-result": 155}
{"biopolymer-sequence": "UGGAGACAUGAGGAUCACCCAUGUGAGAAGAGGCGAGGAUAUCGAAAGAAAGAAGAGAAACGAGAAGGCGCGAGUU [salish99-SS1-035]", "assay-endpoint": "apparent KD of MS2 coat protein", "endpoint-unit": "nM", "experimental-result": 41.6}
{"biopolymer-sequence": "AUAAUAAAAACACAGGAUAUCCAAAAGAAAACAUGAGGAUCACCCAUGUAAAGAAAAUAAAAAUGGGAGAAGGGUGAAAUAAAUA [Mat - Same State 2 - JL mod - D34]", "assay-endpoint": "apparent KD of MS2 coat protein", "endpoint-unit": "nM", "experimental-result": 42.9}
